TARGET OF ASSAY: Serine Kinase Zap-70 (Homo sapiens, UniProt P43403)
PROTOCOL DESCRIPTION: AS-MS dissociation kinetics after quench with excess Staurosporine
Format: binding
PROTOCOL CONDITIONS: read-out: Dissociation rate ks2 (converted)
Recorded koff values for a group of compounds are listed next.
// note: answer is a bare numeric in s⁻¹

> print(dat)
                                   compound  recorded.value
1  CCN(Cc1ccccc1)c1cc(C(=O)N2CCC[C@H]2CN2CCCC2)c2cc(-c3ccc4c(c3)OCO4)ccc2n1         6.5e-05

The reported value for `O=C(c1cc(NCc2ccc(C(F)(F)F)cc2)nc2ccc(-c3ccc4c(c3)OCO4)cc12)N1CCC[C@H]1CN1CCCC1` in terms of koff is 0.000138

The reported value for `CN(Cc1ccc(Cl)c(Cl)c1)c1cc(C(=O)N2CCC[C@H]2CN2CCCC2)c2cc(-c3ccc4c(c3)OCO4)ccc2n1` in terms of koff is 0.000117

====

TARGET OF ASSAY: Serine Kinase Zap-70 (Homo sapiens, UniProt P43403)
Sequence (P43403 1-619): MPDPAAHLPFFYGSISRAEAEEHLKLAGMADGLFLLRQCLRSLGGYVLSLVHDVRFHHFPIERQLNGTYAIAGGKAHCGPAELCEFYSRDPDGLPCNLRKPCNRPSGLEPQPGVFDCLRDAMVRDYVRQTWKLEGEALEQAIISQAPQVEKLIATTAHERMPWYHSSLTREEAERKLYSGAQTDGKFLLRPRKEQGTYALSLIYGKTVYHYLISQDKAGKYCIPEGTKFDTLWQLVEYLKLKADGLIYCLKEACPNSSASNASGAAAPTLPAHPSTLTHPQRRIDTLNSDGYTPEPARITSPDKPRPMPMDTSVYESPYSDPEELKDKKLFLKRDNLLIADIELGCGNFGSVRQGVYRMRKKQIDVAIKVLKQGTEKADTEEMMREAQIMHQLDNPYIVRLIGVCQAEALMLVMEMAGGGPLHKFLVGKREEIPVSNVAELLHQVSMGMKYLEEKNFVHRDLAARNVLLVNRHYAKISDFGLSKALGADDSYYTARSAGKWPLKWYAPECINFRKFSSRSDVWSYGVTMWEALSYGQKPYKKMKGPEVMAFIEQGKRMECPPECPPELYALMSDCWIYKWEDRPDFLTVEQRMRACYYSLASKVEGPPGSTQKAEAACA
PROTOCOL DESCRIPTION: AS-MS dissociation kinetics after quench with excess Staurosporine
Assay type: binding
PROTOCOL CONDITIONS: read-out: Dissociation rate ks2 (converted)
PROPERTY: koff (s⁻¹)
// note: answer is a bare numeric in s⁻¹

Answered examples (4):
> print(dat)
                                   compound  recorded.value
1  O=C(c1cc(NCc2ccc(C(F)(F)F)cc2)nc2ccc(-c3ccc4c(c3)OCCO4)cc12)N1CCC[C@H]1CN1CCCC1        0.000107
2  O=C(c1cc(NCc2cccc(F)c2)nc2ccc(-c3ccc4c(c3)OCO4)cc12)N1CCC[C@H]1CN1CCCC1        0.000493
3  CC(CNc1cc(C(=O)N2CCC[C@H]2CN2CCCC2)c2cc(-c3ccc4c(c3)OCO4)ccc2n1)c1ccccc1 (some centres unmarked)         0.00021
4  O=C(c1cc(NCc2ccc(Cl)cc2)nc2ccc(-c3ccc4c(c3)OCO4)cc12)N1CCC[C@H]1CN1CCCC1        0.000275

# lookup: `CN(Cc1ccccc1)c1cc(C(=O)N2CCC[C@H]2CN2CCCC2)c2cc(-c3ccc4c(c3)OCO4)ccc2n1` on Serine Kinase Zap-70 (Homo sapiens, UniProt P43403), koff = 0.000117
